# RUN DESCRIPTION: Primary qHTS for delayed death inhibitors of the malarial parasite plastid, 48 hour incubation
# CONDITION INFO: P. falciparum luciferase growth in erythrocytes; series mostly up to 28.7 µM
Screen size: about 310,000 compounds; about 18,000 (5.8%) were called active. Not shown: some 22% with an inconclusive outcome. The call rests on the fitted dose curve; in most records, active means well fitted inhibition curve with a large enough effect; inconclusive means small, poorly fitted or top-dose-only effect, or another doubt; inactive means no such curve, though single readings can be large or run the other way. The full list was thinned out, with actives kept by preference.
Outcomes: active, inactive

{"columns": ["SMILES", "LABEL"],
 "data": [
  ["CN(C)CCCN(C(=O)c1ccc(S(=O)(=O)N2CCCc3ccccc32)cc1)c1nc2ccc(F)cc2s1", "active"],
  ["C=CCn1c(SCc2ccccc2)nc2c1c(=O)[nH]c(=O)n2C", "inactive"],
  ["COc1ccc(/C=C/C(=O)c2ccc(OC)cc2O)cc1", "inactive"]
]}

###

# RUN DESCRIPTION: Primary qHTS for delayed death inhibitors of the malarial parasite plastid, 48 hour incubation
# CONDITION INFO: P. falciparum luciferase growth in erythrocytes; series mostly up to 28.7 µM
Among all 310,000 compounds or so, about 18,000 (5.8%) were called active. About 22% were inconclusive and are not listed. The sample as a whole holds a higher share of actives than the screen did.

{"columns": ["SMILES", "outcome"],
 "data": [
  ["Cc1cc(=O)[nH]c(Nc2cccc(Br)c2)n1", "inactive"],
  ["CC1CCN(S(=O)(=O)c2ccc3c(ccn3CC(=O)O)c2)CC1", "inactive"],
  ["COc1ccc(C(=O)OCC(=O)NCCCc2ccccc2)cc1OC", "inactive"],
  ["C=CCn1c(SCC(=O)Nc2ccc(NC(C)=O)cc2)nc2sc(C)c(C)c2c1=O", "inactive"]
]}

###

# RUN DESCRIPTION: Primary qHTS for delayed death inhibitors of the malarial parasite plastid, 48 hour incubation
# CONDITION INFO: P. falciparum luciferase growth in erythrocytes; series mostly up to 28.7 µM
The whole screen tested about 310,000 compounds, of which about 18,000 (5.8%) were called active. Inconclusive results (about 22%) are left out. Calls follow the shape of the dose curve; as a rule, active = well fitted inhibition curve with a large enough effect; inconclusive = small, poorly fitted or top-dose-only effect, or another doubt; inactive = no such curve, though single readings can be large or run the other way. The sample as a whole holds a higher share of actives than the screen did.
Outcomes: t = active, f = inactive

{"columns": ["COMPOUND", "LABEL"],
 "data": [
  ["COc1ccccc1C(=O)N1CC2(C)CC1CC(C)(C)C2 (centres undefined)", "f"],
  ["CCN1CCN(C(c2cccnc2)c2cc(Cl)c3cccnc3c2O)CC1 (centres undefined)", "t"],
  ["CCCc1nnc(NC(=O)CCC(=O)NC2CC2)s1", "f"],
  ["O=C(Nc1ccon1)c1sc2ccccc2c1Cl", "f"],
  ["COc1ccc(CNC(=O)CNC(=O)c2sc3ccccc3c2Cl)cc1OC", "f"],
  ["Cc1ccc(S(=O)(=O)N[C@@H](Cc2ccccc2)C(=O)N2CCC(C(=O)N[C@H](C(=O)O)C(C)O)CC2)cc1 (some centres undefined)", "f"],
  ["Cc1ccccc1CCNC(=O)C1CCC(=O)N(Cc2ccc(Cl)cc2)C1 (centres undefined)", "f"],
  ["CCOC(=O)N1CCN(Cc2nc(N)nc(Nc3ccc(C)cc3)n2)CC1", "f"],
  ["c1ccc(-c2cn3c(n2)CCc2ccc4cccnc4c2-3)cc1", "t"],
  ["O=C(NC(=S)Nc1ccc(Cl)cc1Cl)C1CC1", "f"],
  ["COc1ccc(S(=O)(=O)NCCOc2ccccc2)cc1F", "f"],
  ["O=C(CC1C(=O)NCCN1C(=O)c1ccc([N+](=O)[O-])cc1)Nc1cccc(Cl)c1 (centres undefined)", "f"],
  ["COCCNC(=O)c1ccccc1NS(=O)(=O)c1ccc(C)c([N+](=O)[O-])c1", "f"],
  ["CC(C)(C)NC(=O)NCc1ccco1", "f"]
]}
